So I've got a bunch of compounds here, and I need their GI50 values.
- Test system: CAKI-1
- protocol-summary: NCI tumour cell line growth inhibition, 48 h
Active and inactive are the calls of the source. Cut-off read from the data, not from the text of the source: active = GI50 up to about 1.1 µM and inactive = higher.

compound	assay-target	val
c1cc(-c2ccc(-c3ccsc3)s2)cs1	CAKI-1	45.4 µM (inactive)
c1ccc([P+](c2ccccc2)(c2ccccc2)C2c3ccccc3-c3ccccc32)cc1	CAKI-1	3.46 µM (inactive)

Respectfully, I request GI50 for each entry included below.
1. O=C(O)CCSC(=O)Nc1ccccc1
2. O=C(Nc1ccc(C2=NCCN2)cc1)c1cncc(C(=O)Nc2ccc(C3=NCCN3)cc2)c1
3. CC(=O)O[C@H]1[C@@H](OC2CCCC2(c2ccccc2)c2ccccc2)O[N+]([O-])=C[C@@]12COCc1cc3c(cc12)OCO3 (stereo partly specified)
4. c1cnc(N2CCN(Cc3c[nH]c4ccccc34)CC2)nc1
5. CC(C)(C)c1cc(C(C)(C)C)c(SC2OC(CO)C(O)C(O)C2O)c(O)c1O (stereo unspecified)
6. CCCN(CCCCN1C(=O)c2ccccc2C1=O)CC1COc2ccccc2O1 (stereo unspecified)
7. COC1(c2cccs2)c2ccccc2C(OC)(c2cccs2)c2ccccc21 (stereo unspecified)

["> 100 µM (inactive)", "> 100 µM (inactive)", "4.32 µM (inactive)", "28.2 µM (inactive)", "17.9 µM (inactive)", "> 100 µM (inactive)", "> 100 µM (inactive)"]

src = ChEMBL document CHEMBL1201862
